The reported numbers originate from patent US20070037785A1.

target_under_test: dipeptidyl peptidase IV (Homo sapiens)
test: biochemical
test_parameters: values without "*" = IC-50; read-out: IC50DPIV
attribute_measured: pIC50
In simple prose, pIC50 is minus the logarithm base ten of a concentration in moles per litre.

Use these answered entries as a reference point.
{"columns": ["molecule", "target_under_test", "pIC50"],
 "data": [
  ["CC(=O)Oc1ccc(-c2ccc(/C=N/NC(=O)C34CC5CC(C3)CC(c3ccc(C)cc3)(C5)C4)cc2)cc1", "dipeptidyl peptidase IV (Homo sapiens)", 4.48],
  ["Nc1nonc1-n1nnc(C(=O)NN=C2c3ccccc3-c3ccccc32)c1-c1ccccc1 [D10.012]", "dipeptidyl peptidase IV (Homo sapiens)", 5.00],
  ["O=C(Nc1c[nH]c(=O)[nH]c1=O)c1ccc2c(c1)C(=O)N(c1ccc(C(=O)c3ccccc3)cc1)C2=O [D3.048]", "dipeptidyl peptidase IV (Homo sapiens)", 4.42],
  ["COc1ccccc1C1NCC(c2ccc([N+](=O)[O-])cc2)O1 (stereo not drawn)", "dipeptidyl peptidase IV (Homo sapiens)", 4.15],
  ["CN(/N=C/c1sc(=O)[nH]c1Cl)c1ccccc1 [D10.057]", "dipeptidyl peptidase IV (Homo sapiens)", 4.49],
  ["N#CC1=C(N)C(C#N)(C#N)C(c2ccccc2)C2CNCC=C12 (stereo not drawn) [D4.007]", "dipeptidyl peptidase IV (Homo sapiens)", 5.16],
  ["COc1ccc2ccccc2c1/C=N/NC(=O)c1cc2ccccc2cc1O", "dipeptidyl peptidase IV (Homo sapiens)", 4.75],
  ["N#Cc1c(CC(=O)C(C(F)(F)F)C(F)(F)F)sc2c1CCC2", "dipeptidyl peptidase IV (Homo sapiens)", 4.51]
]}

Now look at this entry.
Ask | Requested read-out pIC50, target or system dipeptidyl peptidase IV (Homo sapiens), entry CN(/N=C/c1sc(=O)[nH]c1Cl)c1ccccc1 [D6.049]
Reply | 4.49

====

target_under_test: dipeptidyl peptidase IV (Homo sapiens)
test: biochemical
test_parameters: values without "*" = IC-50; read-out: IC50DPIV
attribute_measured: IC50 (µM)
Give your result in µM as a bare value.

Use these answered entries as a reference point.
{"columns": ["molecule", "observed_result"],
 "data": [
  ["O=C1CCCC(=O)N1c1ccc(NCCc2ccc(O)cc2)c([N+](=O)[O-])c1 [D5.037]", 54.8],
  ["COc1cc(/C=N/NC(=O)c2ccco2)cc(OC)c1OC(C)=O", 21.8],
  ["O=C1NCCCCC1Nc1ccc(N2C(=O)CCCC2=O)cc1[N+](=O)[O-] (stereo not drawn) [D4.044]", 34.1]
]}

Ask | Could you tell me which IC50 is on file for "CN1CCN(c2nc3c(c(=O)n(C)c(=O)n3C)n2Cc2cccc(F)c2)CC1" ?
Reply | 41.2

Ask | How about "C/C(=N\NC(=O)c1cc(C(C)(C)C)n[nH]1)c1ccc(Cl)cc1" ?
Reply | 55.7

Ask | How about Cc1ccc(C(=O)N/C(=C/c2ccco2)C(=O)N(C)C)cc1 [D6.091] ?
Reply | 47.7

Ask | How about "CN(C)c1ccc(/C=C(\NC(=O)c2ccccc2)C(=O)N/N=C/c2ccccc2[N+](=O)[O-])cc1" ?
Reply | 39.2

Ask | How about "COc1cc(Br)cc(Br)c1OCC(=O)N/N=C/c1cc(O)c(O)c(Br)c1Br" ?
Reply | 9.1

====

pIC50 values for the molecules below.
target_under_test: dipeptidyl peptidase IV (Homo sapiens, UniProt P27487)
Sequence (P27487 whole entry, species assumed): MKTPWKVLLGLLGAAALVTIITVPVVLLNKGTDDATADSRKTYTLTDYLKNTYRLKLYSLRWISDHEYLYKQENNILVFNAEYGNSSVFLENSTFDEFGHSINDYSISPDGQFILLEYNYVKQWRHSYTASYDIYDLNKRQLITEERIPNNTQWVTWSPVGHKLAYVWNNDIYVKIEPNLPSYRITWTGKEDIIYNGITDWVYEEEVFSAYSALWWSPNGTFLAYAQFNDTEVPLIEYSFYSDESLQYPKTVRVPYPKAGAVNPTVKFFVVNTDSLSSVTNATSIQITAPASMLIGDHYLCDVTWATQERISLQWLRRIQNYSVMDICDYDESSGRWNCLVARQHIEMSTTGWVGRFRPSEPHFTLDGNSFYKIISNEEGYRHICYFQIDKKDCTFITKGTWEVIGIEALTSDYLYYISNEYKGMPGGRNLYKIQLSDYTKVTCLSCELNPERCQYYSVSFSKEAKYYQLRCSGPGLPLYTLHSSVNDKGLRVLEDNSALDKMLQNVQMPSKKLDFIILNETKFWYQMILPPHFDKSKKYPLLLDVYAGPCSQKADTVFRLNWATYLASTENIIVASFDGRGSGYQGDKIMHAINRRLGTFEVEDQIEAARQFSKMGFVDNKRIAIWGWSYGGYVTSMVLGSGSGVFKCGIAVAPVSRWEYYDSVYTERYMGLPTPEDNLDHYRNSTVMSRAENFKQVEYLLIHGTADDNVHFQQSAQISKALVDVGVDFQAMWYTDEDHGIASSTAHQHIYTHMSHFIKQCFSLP
test: biochemical
test_parameters: values without "*" = IC-50; read-out: IC50DPIV
In simple prose, pIC50 is minus the logarithm base ten of a concentration in moles per litre.

Use these answered entries as a reference point.
{"columns": ["molecule", "pIC50"],
 "data": [
  ["CC(=O)Oc1cccc(N2C(=O)c3ccc(C(=O)NCc4ccc(C(=O)O)cc4)cc3C2=O)c1", 4.74],
  ["CC(C)C1Cc2c(sc3c2c(=O)n(Cc2ccccc2)c2nnc(SCC(=O)O)n32)CO1 (stereo not shown) [D3.024]", 4.72],
  ["CC1=C(C#N)C(=O)N(CCc2ccccc2)C(=O)/C1=C/c1ccc(-c2ccc(S(N)(=O)=O)cc2)o1", 4.32]
]}

Now look at this entry.
Ask | Requested read-out pIC50, target or system dipeptidyl peptidase IV (Homo sapiens, UniProt P27487), entry "CCOC(=O)CN(Cc1ccccc1)c1ccc(N2C(=O)CCCC2=O)cc1[N+](=O)[O-]"
Reply | 4.87

====

pIC50 values for the compounds below.
target_under_test: dipeptidyl peptidase IV (Homo sapiens)
test: biochemical
test_parameters: values marked with "*" are ID50 values; read-out: IC50DPIV, values marked with "*" = ID50
In simple prose, pIC50 is minus the logarithm base ten of a concentration in moles per litre.

Use these answered entries as a reference point.
{"columns": ["compound", "target_under_test", "pIC50"],
 "data": [
  ["CCOc1cccc(/C=N\\NC(=O)c2ccco2)c1O", "dipeptidyl peptidase IV (Homo sapiens)", 3.99],
  ["CCC(=O)Oc1cccc(N2C(=O)C3C4C=CC(C3C2=O)C2C(=O)N(c3cccc(OC(=O)CC)c3)C(=O)C42)c1 (stereo not shown) [D4.006]", "dipeptidyl peptidase IV (Homo sapiens)", 5.38],
  ["Cc1cccc(NCC(=O)N/N=C/c2cc(Br)c(O)c(O)c2Br)c1", "dipeptidyl peptidase IV (Homo sapiens)", 4.18],
  ["CCOC(=O)O/N=C(N)/C(N)=N/OC(=O)OCC [D2.006]", "dipeptidyl peptidase IV (Homo sapiens)", 3.88],
  ["O=C(N/N=C/c1ccc(O)c(O)c1)c1cccc([N+](=O)[O-])c1", "dipeptidyl peptidase IV (Homo sapiens)", 3.94]
]}

Ask | Could you tell me which pIC50 is on file for COc1ccc(NC(=O)CSc2nnc3n2-c2sc4c(c2C(=O)C3CCc2ccccc2)CC(C)(C)OC4)cc1 (stereo not shown) [D6.126] ?
Reply | 3.55

====

IC50 values for the compounds below.
target_under_test: dipeptidyl peptidase IV (Homo sapiens)
test: biochemical
test_parameters: values without "*" = IC-50; read-out: IC50DPIV
Answer format: number, then unit.

Use these answered entries as a reference point.
{"columns": ["compound", "IC50"],
 "data": [
  ["CC(C)C1Cc2c(sc3c2c(=O)n(Cc2ccccc2)c2nnc(SCC(=O)O)n32)CO1 (centres unmarked) [D6.037]", "18.9 µM"],
  ["Brc1cccc(/C=N/Nc2nnc3c(n2)[nH]c2ccccc23)c1 [D3.015]", "12.2 µM"],
  ["CCOC(=O)c1n[nH]c2c1C(=O)N(c1ccc([N+](=O)[O-])cc1)C2=O [D2.005]", "54.5 µM"],
  ["CCOP(=O)(CC(=O)N1CCN(C(=O)Nc2cccc(Br)c2)C1C(=O)NCc1cccc(CN)c1)OCC (centres unmarked)", "46.3 µM"],
  ["Cc1cc([N+](=O)[O-])c(C)cc1-c1ccc(/C=C/c2cc(C(F)(F)F)nc(=O)[nH]2)o1", "20.6 µM"],
  ["CNc1nc2c(c(=O)[nH]c(=O)n2C)n1Cc1ccccc1Cl [D6.043]", "27.8 µM"],
  ["O=C1CCCC(=O)N1c1ccc(N2CCc3ccccc3C2)c([N+](=O)[O-])c1", "28.8 µM"],
  ["CC1=C(C#N)C(=O)N=C(O)/C1=C\\c1ccc(-c2ccc(Cl)cc2Cl)o1 [D4.087]", "95.8 µM"]
]}

Ask | Could you tell me which IC50 is on file for "Cn1c(=O)c2c(nc(NCCO)n2Cc2ccccc2Cl)n(C)c1=O" ?
Reply | 44 µM

Ask | How about "Cc1ccccc1C(=O)N/N=C/c1ccc([N+](=O)[O-])o1" ?
Reply | 20.9 µM

Ask | How about CC1CCN(C(=O)/C(=C\c2ccco2)NC(=O)c2ccc(Cl)cc2)CC1 [D12.004] ?
Reply | 18.5 µM

Ask | How about O=C1c2ccc(-c3nc4ccccc4c(=O)o3)cc2C(=O)N1c1ccc(Cc2ccc(N3C(=O)c4ccc(-c5nc6ccccc6c(=O)o5)cc4C3=O)cc2)cc1 [D3.032] ?
Reply | 27.2 µM

Ask | How about CCCOC(=O)c1cc(-c2ccc(/C=C3/C(=O)N(CC(C)O)C(=O)C(C#N)=C3C)o2)ccc1Cl (centres unmarked) [D4.083] ?
Reply | 82.2 µM

Ask | How about "O=C(N/N=C/c1ccc(-c2ccc(Cl)cc2)o1)/C(=C/c1ccc([N+](=O)[O-])cc1)NC(=O)c1ccccc1" ?
Reply | 16.4 µM

Ask | How about "Cc1ccc(C)n1-c1cccc(C(=O)N/N=C/c2cc(Br)c(O)c(Br)c2)c1" ?
Reply | 41 µM

====

target_under_test: dipeptidyl peptidase IV (Homo sapiens)
test: biochemical
test_parameters: values marked with "*" are ID50 values; read-out: IC50DPIV, values marked with "*" = ID50
attribute_measured: pIC50
In simple prose, pIC50 is minus the logarithm base ten of a concentration in moles per litre.

Use these answered entries as a reference point.
{"columns": ["compound", "observed_result"],
 "data": [
  ["CC(C)(C)c1cc2oc3c(c2c(/C=N/NC(=O)c2ccc(O)cc2O)c1O)CCCC3", 4.13],
  ["Cc1cc(Cl)ccc1OC(C)C(=O)N/N=C1/C(=O)Nc2ccc([N+](=O)[O-])cc21 (stereo not drawn)", 3.78]
]}

Now look at this entry.
Ask | Could you tell me which pIC50 is on file for "COc1ccc(-n2c(=O)c3c4c(sc3n3c(SCc5ccc(Br)cc5)nnc23)COC(C)(C)C4)cc1" ?
Reply | 3.50
